Molecular target: T1, human Nectin-4 (human, UniProt Q96NY8 32-349)
T1 construct: a Gly32-Ser349 FLAG construct is described only under the SPR assay; also called PVRL4
T1 sequence (looked up): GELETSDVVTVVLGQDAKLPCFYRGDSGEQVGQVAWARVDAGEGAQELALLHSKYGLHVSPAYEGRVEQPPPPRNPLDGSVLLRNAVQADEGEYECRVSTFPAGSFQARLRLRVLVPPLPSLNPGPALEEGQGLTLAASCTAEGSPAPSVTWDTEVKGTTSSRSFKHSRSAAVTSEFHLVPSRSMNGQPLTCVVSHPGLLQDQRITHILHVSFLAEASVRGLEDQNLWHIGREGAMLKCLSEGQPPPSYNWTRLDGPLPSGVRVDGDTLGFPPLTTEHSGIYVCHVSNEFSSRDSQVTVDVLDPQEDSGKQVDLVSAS
Assay: FP competition, tracer SEQ ID NO 217
*1 amine or outer side, *2 acyl side, *3 side chain or, on linkers, in order; H or OH if unused. Bridges are numbered along the chain shown (N, C = ends). Where no end group is shown, it is not given here. [ ]: non-standard residue; d: D form. TATA = O=C(CC[*:1])N1CN(C(=O)CC[*:2])CN(C(=O)CC[*:3])C1; Trp(5-F) = N[C@@H](Cc1c[nH]c2ccc(F)cc12)C(=O)O; 1Nal = N[C@@H](Cc1cccc2ccccc12)C(=O)O; Hyp = O=C(O)[C@@H]1C[C@@H](O)CN1; hArg = N=C(N)NCCCC[C@H](N)C(=O)O; βAla = NCCC(=O)O; Sar = CNCC(=O)O
Catalogue of binders with associated Ki
Give the number; nM is assumed, so skip it.

As a guide, the following entries are already answered.
Inquiry: Suppose we examine the binder Ac-CPF[dF]CM[hArg]NWSTPIWC (linker 1-5-15 via TATA) [BCY7902] ; what Ki value has been reported?
Reply text: 4

Inquiry: Suppose we examine the binder Ac-CP[1Nal][dR]CM[hArg]NWSTP[Hyp]WC (linker 1-5-15 via TATA) [BCY8128] ; what Ki value has been reported?
Reply text: 2.2

Inquiry: Suppose we examine the binder Ac-CPF[dD]CL[hArg]NWSTPIWC (linker 1-5-15 via TATA) [BCY8039] ; what Ki value has been reported?
Reply text: 21.4

Inquiry: Suppose we examine the binder Ac-CPF[dD]CM[hArg]NWSTPI[Trp(5-F)]C (linker 1-5-15 via TATA) [BCY7892] ; what Ki value has been reported?
Reply text: 9.5

Inquiry: Suppose we examine the binder ACPFGCMKNWSWPIWCTN[hArg] (linker 2-6-16 via TATA, also called 80-09-02-T01-N003) [BCY7281] ; what Ki value has been reported?
Reply text: 22.9

Attention now shifts to the item below.
Inquiry: Suppose we examine the binder {Ac-βAla}-[Sar][Sar][Sar][Sar][Sar]CP[1Nal][dD]CM[hArg]NWSTP[Hyp]WC (linker 6-10-20 via TATA) [BCY8120] ; what Ki value has been reported?
Reply text: 3
